# normalized MFI annotations
- TESTED SYSTEM: T1, huIL-17RA-FLAG-polyHis (human, UniProt Q96F46 33-320)
- T1 construct: also called IL-17RA-FLAG-pHis; wild-type IL-17RA
- EXPERIMENT NOTES: binning; IL-17RA held by bead mAb O
Output: the number by itself.

{"BINDER": "AMH12/AML12 (antibody, IgG2, V domains shown, human mAb from IgG2 XenoMouse mice; also called AM-12; antibody M) VH: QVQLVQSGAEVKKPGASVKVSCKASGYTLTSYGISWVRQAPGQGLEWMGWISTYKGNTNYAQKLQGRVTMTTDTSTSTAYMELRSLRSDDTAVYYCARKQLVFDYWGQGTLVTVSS VL: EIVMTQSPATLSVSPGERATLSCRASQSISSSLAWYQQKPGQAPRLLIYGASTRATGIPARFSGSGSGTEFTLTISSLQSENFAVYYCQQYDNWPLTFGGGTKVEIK", "normalized MFI": 49}

Proceed to the following item.
In: So what does the record say about normalized MFI for AMH7/AML7 (antibody, IgG2, V domains shown, human mAb from IgG2 XenoMouse mice; also called AM-7; antibody D) VH: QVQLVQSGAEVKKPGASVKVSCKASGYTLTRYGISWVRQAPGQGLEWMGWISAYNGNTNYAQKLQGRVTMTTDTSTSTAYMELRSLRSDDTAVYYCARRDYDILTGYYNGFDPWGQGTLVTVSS VL: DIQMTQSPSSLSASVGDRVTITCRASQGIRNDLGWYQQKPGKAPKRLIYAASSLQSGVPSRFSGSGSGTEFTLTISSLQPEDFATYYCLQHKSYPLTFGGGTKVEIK ?
Out: 5540
